Each item that follows carries a reported log10 IC50.
study.target: recombinant PDE7A1 (Homo sapiens, UniProt Q13946)
Construct: made in house; host or cells: SF21 insect cells (baculovirus; virus made in SF9)
Sequence (Q13946 whole entry): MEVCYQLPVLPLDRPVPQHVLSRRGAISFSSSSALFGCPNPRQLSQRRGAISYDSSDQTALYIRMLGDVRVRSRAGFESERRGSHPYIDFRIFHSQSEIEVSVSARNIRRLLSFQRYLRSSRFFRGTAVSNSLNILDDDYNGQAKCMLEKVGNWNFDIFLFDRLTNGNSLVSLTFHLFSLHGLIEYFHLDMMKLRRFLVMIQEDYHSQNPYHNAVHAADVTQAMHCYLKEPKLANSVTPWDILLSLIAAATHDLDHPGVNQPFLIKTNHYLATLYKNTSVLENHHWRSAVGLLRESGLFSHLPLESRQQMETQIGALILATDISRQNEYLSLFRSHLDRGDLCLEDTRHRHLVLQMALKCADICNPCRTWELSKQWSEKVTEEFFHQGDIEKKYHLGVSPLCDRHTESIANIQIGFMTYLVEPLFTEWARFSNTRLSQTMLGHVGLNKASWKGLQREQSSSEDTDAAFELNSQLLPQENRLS
assay.details: Inhibition of PDE7 activity, modified SPA (scintillation proximity assay) test
Type: biochemical
protocol.conditions: recombinant PDE7A1 (1000×g supernatant of SF21 cells), 0.5 μM cAMP, [3H]cAMP SPA, 37° C.; read-out: −log IC50 (inhibition of PDE7 activity) (converted)
Answers are given as log10 of IC50 in nM.

molecule	study.target	log10 IC50
O=S(=O)(C=Cc1ccccc1)Nc1ccc(C2=NCCc3ccc(Cl)cc32)cc1 [Compound 6h]	recombinant PDE7A1 (Homo sapiens, UniProt Q13946)	2.39

Okay, now this molecule:
Task item: Would you mind telling me what log10 IC50 value was observed for COc1cc(C2=NCCc3ccc(Cl)cc32)ccc1NS(=O)(=O)c1ccc(OC(F)(F)F)cc1 [Compound 1a] ?
Reply: 1.51
